System: Digitaria ciliaris (Di)
Test: Test Example 2: herbicidal effects by upland field soil treatment;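 note: grade of growth control; 5 = at least 90%; 4 = 70 to 90%; 3 = 50 to 70%; 2 = 30 to 50%; 1 = 10 to 30%; 0 = under 10%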
Format: in vivo
Settings: 100 g of the active ingredient per 10 ares, evaluated on the 21st day after application
// values below are reported Herbicidal effects Di
parameter measured: Herbicidal effects Di

* C=CCOc1cc(Cl)cc(F)c1-c1ccc(C(F)(F)F)n(C)c1=O [1′-3] | 5
* CNS(=O)(=O)c1cc(-c2ccc(C(F)(F)F)n(C)c2=O)c(Cl)cc1Cl [Compound 1-256] | 5
* CCc1cc2c(-c3ccc(C(F)(F)F)n(C)c3=O)c(F)cc(Cl)c2o1 [Compound 4-2] | 5
* Cn1c(C(F)(F)F)ccc(-c2cc(C(=O)OC3CCCC3)c(Cl)cc2F)c1=O [Compound 1-184] | 5

---

Test system: corn (Ze)
Assay: Test Example 7: crop plant selectivity by upland field soil treatment (corn), phytotoxicity
Type: in vivo
Parameters: scale not given here
Conditions: dose 1.6 g ai/10a, 21st day after application
Source text: (Test on Crop Plant Selectivity by Upland Field Soil Treatment) In a plastic pot (surface area: 600 cm^2) filled with sand, corn (Ze), green foxtail (Se), pale smartweed (Po), slender amaranth (Am), common lambsquarters (Ch) and China jute (Ab) were sown and covered with soil. […]
// values below are reported Phytotoxicity Ze
parameter measured: Phytotoxicity Ze

* Cn1c(C(F)(F)F)ccc(-c2cc(OCC(F)(F)F)c(Cl)cc2F)c1=O | 0
* C#CCOc1cc(-c2ccc(C(F)(F)F)n(N)c2=O)c(F)cc1Cl | 2
* C#CC(C)Oc1cc(Cl)cc(F)c1-c1ccc(C(F)(F)F)n(C)c1=O (centres unmarked) | 1
* Cn1c(C(F)(F)F)ccc(-c2c(F)cc(Cl)c3occc23)c1=O | 1
* C#CCOc1cc(-c2ccc(C(F)(F)F)n(C)c2=O)c(F)cc1Cl | 1
* C#CCn1c(=O)sc2cc(F)c(-c3ccc(C(F)(F)F)n(C)c3=O)cc21 | 2
* Cc1cc2c(-c3ccc(C(F)(F)F)n(C)c3=O)c(F)cc(Cl)c2o1 | 0
* C#CC(C)Oc1cc(-c2ccc(C(F)(F)F)n(C)c2=O)c(F)cc1Cl (centres unmarked) | 1
* C#CC(O)c1cc(-c2ccc(C(F)(F)F)n(C)c2=O)c(F)cc1Cl (centres unmarked) | 1
* Cn1c(C(F)(F)F)ccc(-c2cc(Cl)c(Cl)cc2F)c1=O | 1
* C=CCOc1cc(-c2ccc(C(F)(F)F)n(C)c2=O)c(F)cc1Cl | 0
* C#CCN1C(=O)COc2cc(Cl)c(-c3ccc(C(F)(F)F)n(C)c3=O)cc21 | 1
* C#CCOc1cc(-c2ccc(C(F)(F)F)n(C)c2=O)c(Cl)cc1Cl | 1
* COCc1cc2c(-c3ccc(C(F)(F)F)n(C)c3=O)c(F)cc(Cl)c2o1 | 1
* CCc1cc2c(-c3ccc(C(F)(F)F)n(C)c3=O)c(F)cc(Cl)c2o1 | 1
* CCOC(=O)c1cc(-c2ccc(C(F)(F)F)n(C)c2=O)c(F)cc1Cl | 1
* Cc1cc(-c2ccc(C(F)(F)F)n(C)c2=O)c(F)cc1Cl | 1
* CON=Cc1cc(-c2ccc(C(F)(F)F)n(C)c2=O)c(F)cc1Cl | 0
* COc1cc(-c2ccc(C(F)(F)F)n(C)c2=O)c(F)cc1Cl | 1
* COCSc1cc(-c2ccc(C(F)(F)F)n(C)c2=O)c(F)cc1Cl | 1
